setup_conditions: siRNA; note: test system not given here
HELM strings list units from the 5' end as sugar, base in round brackets, then linkage (d deoxyribose, r ribose, m 2'-O-methyl, p phosphodiester). Strings are as the collection lists them, not checked against the first reports. ss, as = sense and antisense strand; [fl2r] = 2'-fluoro
property_measured: target mRNA knockdown (%)
Use % as the unit, but write only the number.

Notebook: RNA1{[fl2r](G)p.r(U)p.[fl2r](U)p.r(C)p.[fl2r](A)p.r(C)p.[fl2r](G)p.r(U)p.[fl2r](C)p.r(C)p.[fl2r](U)p.r(A)p.[fl2r](C)p.r(C)p.[fl2r](C)p.r(C)p.[fl2r](U)p.r(U)p.[fl2r](U)p.r(T)p.r(T)}|RNA2{r(A)p.r(A)p.r(A)p.r(G)p.r(G)p.r(G)p.r(G)p.r(U)p.r(A)p.r(G)p.r(G)p.r(A)p.[fl2r](C)p.r(G)p.r(U)p.r(G)p.r(A)p.r(A)p.[fl2r](C)p.r(T)p.r(T)}$$$RNA1{StrandType:ss}|RNA2{StrandType:as}$ , target mRNA knockdown read as 23

====

setup_conditions: siRNA
HELM strings list units from the 5' end as sugar, base in round brackets, then linkage (d deoxyribose, r ribose, m 2'-O-methyl, p phosphodiester). Strings are as the collection lists them, not checked against the first reports. ss, as = sense and antisense strand; [fl2r] = 2'-fluoro
property_measured: target mRNA knockdown

Notebook: RNA1{[fl2r](A)p.r(U)p.[fl2r](C)p.r(G)p.[fl2r](C)p.r(U)p.[fl2r](G)p.r(C)p.[fl2r](U)p.r(C)p.[fl2r](C)p.r(U)p.[fl2r](C)p.r(C)p.[fl2r](U)p.r(C)p.[fl2r](C)p.r(U)p.[fl2r](C)p.r(T)p.r(T)}|RNA2{r(G)p.r(A)p.r(G)p.r(G)p.r(A)p.r(G)p.r(G)p.r(A)p.r(G)p.r(G)p.r(A)p.r(G)p.r(C)p.r(A)p.r(G)p.r(C)p.r(G)p.r(A)p.[fl2r](U)p.r(T)p.r(T)}$$$RNA1{StrandType:ss}|RNA2{StrandType:as}$ , target mRNA knockdown read as 39%

====

setup_conditions: siRNA
HELM strings list units from the 5' end as sugar, base in round brackets, then linkage (d deoxyribose, r ribose, m 2'-O-methyl, p phosphodiester). Strings are as the collection lists them, not checked against the first reports. ss, as = sense and antisense strand; [fl2r] = 2'-fluoro
target mRNA knockdown vs 50%: at or above is YES, below is NO.

Examples with answers:
Is it the case that RNA1{r(A)p.r(A)p.r(C)p.r(C)p.r(C)p.r(A)p.r(C)p.r(C)p.r(A)p.r(C)p.r(A)p.r(G)p.r(C)p.[fl2r](U)p.[fl2r](A)p.r(G)p.r(A)p.r(A)p.r(C)p.r(U)p.r(U)}|RNA2{r(A)p.r(A)p.r(G)p.r(U)p.r(U)p.r(C)p.[fl2r](U)p.[fl2r](A)p.r(G)p.r(C)p.r(U)p.r(G)p.r(U)p.r(G)p.r(G)p.r(U)p.r(G)p.r(G)p.r(G)p.r(U)p.r(U)}$$$RNA1{StrandType:ss}|RNA2{StrandType:as}$ has target mRNA knockdown reaching or exceeding 50%? YES

Is it the case that RNA1{r(C)p.r(C)p.r(G)p.r(A)p.r(A)p.r(G)p.r(A)p.r(C)p.r(G)p.r(A)p.r(A)p.r(G)p.r(C)p.[fl2r](U)p.r(A)p.[fl2r](U)p.r(G)p.r(A)p.r(A)p.r(T)p.r(T)}|RNA2{r(U)p.r(U)p.[fl2r](C)p.r(A)p.[fl2r](U)p.r(A)p.r(G)p.r(C)p.r(U)p.r(U)p.r(C)p.r(G)p.r(U)p.r(C)p.r(U)p.r(U)p.r(C)p.r(G)p.r(G)p.r(T)p.r(T)}$$$RNA1{StrandType:ss}|RNA2{StrandType:as}$ has target mRNA knockdown reaching or exceeding 50%? NO

Is it the case that RNA1{m(C)p.r(U)p.m(C)p.r(A)p.m(A)p.r(A)p.m(U)p.r(C)p.m(A)p.r(A)p.m(G)p.r(G)p.m(C)p.r(C)p.m(G)p.r(G)p.m(A)p.r(G)p.m(U)p.r(T)p.r(T)}|RNA2{r(A)p.r(C)p.r(U)p.r(C)p.r(C)p.m(G)p.m(G)p.r(C)p.r(C)p.r(U)p.r(U)p.m(G)p.r(A)p.r(U)p.r(U)p.r(U)p.m(G)p.r(A)p.m(G)p.r(T)p.r(T)}$$$RNA1{StrandType:ss}|RNA2{StrandType:as}$ has target mRNA knockdown reaching or exceeding 50%? NO

Is it the case that RNA1{m(U)p.r(A)p.m(A)p.r(A)p.m(C)p.r(U)p.m(U)p.r(U)p.m(G)p.r(G)p.m(G)p.r(G)p.m(A)p.r(A)p.m(G)p.r(G)p.m(G)p.r(A)p.m(G)p.r(T)p.r(T)}|RNA2{r(C)p.r(U)p.r(C)p.r(C)p.r(C)p.r(U)p.r(U)p.r(C)p.r(C)p.r(C)p.r(C)p.r(A)p.r(A)p.r(A)p.r(G)p.r(U)p.r(U)p.r(U)p.r(A)p.r(T)p.r(T)}$$$RNA1{StrandType:ss}|RNA2{StrandType:as}$ has target mRNA knockdown reaching or exceeding 50%? NO

More entries:
Is it the case that RNA1{r(U)p.r(C)p.r(C)p.r(U)p.r(C)p.r(G)p.r(U)p.r(C)p.r(G)p.r(U)p.r(C)p.r(U)p.r(G)p.r(U)p.r(U)p.r(C)p.[fl2r](U)p.r(A)p.r(A)p.r(T)p.r(T)}|RNA2{r(U)p.[fl2r](U)p.r(A)p.r(G)p.r(A)p.r(A)p.[fl2r](C)p.r(A)p.r(G)p.r(A)p.r(C)p.r(G)p.r(A)p.r(C)p.r(G)p.r(A)p.r(G)p.r(G)p.r(A)p.r(T)p.r(T)}$$$RNA1{StrandType:ss}|RNA2{StrandType:as}$ has target mRNA knockdown reaching or exceeding 50%? YES
